ASSAY_INFO: Measurement of Compound Metabolic Stability in hepatocytes
Type: in vitro ADME
CONDITION_SET: mouse hepatocytes
QUANTITY_NAME: half-life at 1 μM

[[record]]
compound = "Nc1nc2cc(C3C[C@@]4(CO3)C[C@@H](n3ccc5c(Cl)ncnc53)[C@H](O)[C@@H]4O)ccc2cc1Br (some centres unmarked) [Compound 17]"
reported_result = "15 to 50 min"

[[record]]
compound = "Cc1ncnc2c1ccn2[C@@H]1C[C@@]2(CO[C@@H](c3ccc4cc(Br)c(N)nc4c3)C2)[C@@H](O)[C@H]1O [Compound 19]"
reported_result = "> 50 min"

[[record]]
compound = "CNc1ncnc2c1ccn2[C@@H]1C[C@@]2(CO[C@@H](c3ccc4cc(Br)c(N)nc4c3)C2)[C@@H](O)[C@H]1O [Compound 23]"
reported_result = "> 50 min"

[[record]]
compound = "Nc1nc2cc(C3C[C@@]4(CO3)C[C@@H](n3ccc5c(N)ncnc53)[C@H](O)[C@@H]4O)ccc2cc1Br (single isomer, unassigned) [Compound 15]"
reported_result = "> 50 min"

[[record]]
compound = "Nc1nc2cc([C@H]3C[C@@]4(CO3)C[C@@H](n3ccc5cncnc53)[C@H](O)[C@@H]4O)ccc2cc1Br [Compound 22]"
reported_result = "< 15 min"

[[record]]
compound = "Nc1ccc2ccc([C@H]3C[C@@]4(CO3)C[C@@H](n3ccc5cncnc53)[C@H](O)[C@@H]4O)cc2n1 [Compound 21]"
reported_result = "< 15 min"

[[record]]
compound = "Nc1ccc2ccc([C@H]3C[C@@]4(CO3)C[C@@H](n3ccc5c(Cl)ncnc53)[C@H](O)[C@@H]4O)cc2n1 [Compound 20]"
reported_result = "< 15 min"

[[record]]
compound = "CCNc1ncnc2c1ccn2[C@@H]1C[C@@]2(CO[C@@H](c3ccc4cc(Br)c(N)nc4c3)C2)[C@@H](O)[C@H]1O [Compound 24]"
reported_result = "15 to 50 min"

